# ASSAY_PROTOCOL: Rat pharmacokinetics studies (plasma)
# Type: in vivo, Sprague Dawley rats
# COND: male, Sprague Dawley, plasma; rat, PO 5 mg/Kg, using AUC(0-t) instead of AUC(0-∞); read-out: calculated oral bioavailability
EXPERIMENTAL_ENDPOINT: bioavailability (%)
Answers are plain numbers, in %.

[ask] Any idea what its bioavailability is? The compound is CN(C)C/C=C/C(=O)Nc1cc2c(Nc3ccc(F)c(Cl)c3)ncnc2cc1C#C[C@@H]1[C@H]2COC[C@@H]12
[reply] 80.5

----------
# ASSAY_PROTOCOL: Rat pharmacokinetics studies (plasma)
# Type: in vivo, Sprague Dawley rats
# COND: male, Sprague Dawley; rat plasma, PO 5 mg/Kg
EXPERIMENTAL_ENDPOINT: AUC(0-t) (ng·h/mL)
Give bare numbers, in ng·h/mL.

[ask] Any idea what its AUC(0-t) is? The compound is CN(C)C/C=C/C(=O)Nc1cc2c(Nc3ccc(F)c(Cl)c3)ncnc2cc1C#C[C@@H]1[C@H]2COC[C@@H]12 [Example 4]
[reply] 542

Data credit: patent US11524956B2
